# System: shBRD4/STAT3-CAKI-2 cells
# experiment: MTT assay on shRNA-transfected CAKI-2 cells
# Assay type: cell-based
# condition.details: Homo sapiens, CAKI-2 stably expressing BRD4/STAT3 shRNA, 48 h, read-out: IC50 (μM) ± SD shBRD4/STAT3-CAKI-2
measured.quantity: IC50

• CCS(=O)(=O)Cc1cnc(Oc2c(F)cc(F)cc2OCCCCOc2ccc(/C=C/c3cc(OC)cc(OC)c3)cc2)c(-c2cc(C)c3c(=O)[nH]ccn23)c1 [BST-4] = > 10 µM

----------
# experimental.system: JAK2 (Homo sapiens, UniProt O60674)
# Sequence (O60674 whole entry): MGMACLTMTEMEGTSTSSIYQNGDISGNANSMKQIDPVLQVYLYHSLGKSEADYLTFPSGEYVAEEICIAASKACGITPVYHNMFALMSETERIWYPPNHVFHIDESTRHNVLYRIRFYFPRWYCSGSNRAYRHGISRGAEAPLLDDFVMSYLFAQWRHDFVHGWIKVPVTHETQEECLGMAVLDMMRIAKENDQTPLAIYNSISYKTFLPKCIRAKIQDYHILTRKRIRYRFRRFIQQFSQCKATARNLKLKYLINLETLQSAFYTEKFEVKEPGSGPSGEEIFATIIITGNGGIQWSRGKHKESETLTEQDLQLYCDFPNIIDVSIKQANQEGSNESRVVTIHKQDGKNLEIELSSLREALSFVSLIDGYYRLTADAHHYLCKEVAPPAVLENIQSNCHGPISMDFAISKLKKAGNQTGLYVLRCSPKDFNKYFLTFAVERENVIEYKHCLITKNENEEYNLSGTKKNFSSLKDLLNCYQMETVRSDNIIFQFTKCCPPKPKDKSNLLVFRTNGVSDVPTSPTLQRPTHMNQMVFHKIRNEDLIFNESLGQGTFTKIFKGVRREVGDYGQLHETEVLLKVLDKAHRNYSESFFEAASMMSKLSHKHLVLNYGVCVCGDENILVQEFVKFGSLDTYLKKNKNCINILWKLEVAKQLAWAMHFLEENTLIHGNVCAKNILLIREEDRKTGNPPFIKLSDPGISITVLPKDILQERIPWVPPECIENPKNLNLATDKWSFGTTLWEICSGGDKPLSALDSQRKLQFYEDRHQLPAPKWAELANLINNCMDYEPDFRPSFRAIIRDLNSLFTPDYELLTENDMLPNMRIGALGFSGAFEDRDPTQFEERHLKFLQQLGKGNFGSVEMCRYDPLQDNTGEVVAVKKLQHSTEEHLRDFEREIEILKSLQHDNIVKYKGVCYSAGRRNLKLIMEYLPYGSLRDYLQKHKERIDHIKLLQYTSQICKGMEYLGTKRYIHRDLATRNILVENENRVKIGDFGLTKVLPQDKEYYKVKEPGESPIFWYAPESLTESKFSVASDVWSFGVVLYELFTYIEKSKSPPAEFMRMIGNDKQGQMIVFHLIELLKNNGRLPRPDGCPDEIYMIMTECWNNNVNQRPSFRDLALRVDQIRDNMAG
pIC50: −log10 of the molar value.
measured.quantity: pIC50

* CCS(=O)(=O)Cc1cnc(Oc2c(F)cc(F)cc2OCCCCOc2ccc(/C=C/c3cc(OC)cc(OC)c3)cc2)c(-c2cc(C)c3c(=O)[nH]ccn23)c1 | < 5.00

----------
# experimental.system: IGF1R (Homo sapiens, UniProt P08069)
measured.quantity: IC50

- CCS(=O)(=O)Cc1cnc(Oc2c(F)cc(F)cc2OCCCCOc2ccc(/C=C/c3cc(OC)cc(OC)c3)cc2)c(-c2cc(C)c3c(=O)[nH]ccn23)c1 [BST-4]: > 10 µM

----------
# experimental.system: FGFR1 (Homo sapiens)
# Sequence (P11362 22-822): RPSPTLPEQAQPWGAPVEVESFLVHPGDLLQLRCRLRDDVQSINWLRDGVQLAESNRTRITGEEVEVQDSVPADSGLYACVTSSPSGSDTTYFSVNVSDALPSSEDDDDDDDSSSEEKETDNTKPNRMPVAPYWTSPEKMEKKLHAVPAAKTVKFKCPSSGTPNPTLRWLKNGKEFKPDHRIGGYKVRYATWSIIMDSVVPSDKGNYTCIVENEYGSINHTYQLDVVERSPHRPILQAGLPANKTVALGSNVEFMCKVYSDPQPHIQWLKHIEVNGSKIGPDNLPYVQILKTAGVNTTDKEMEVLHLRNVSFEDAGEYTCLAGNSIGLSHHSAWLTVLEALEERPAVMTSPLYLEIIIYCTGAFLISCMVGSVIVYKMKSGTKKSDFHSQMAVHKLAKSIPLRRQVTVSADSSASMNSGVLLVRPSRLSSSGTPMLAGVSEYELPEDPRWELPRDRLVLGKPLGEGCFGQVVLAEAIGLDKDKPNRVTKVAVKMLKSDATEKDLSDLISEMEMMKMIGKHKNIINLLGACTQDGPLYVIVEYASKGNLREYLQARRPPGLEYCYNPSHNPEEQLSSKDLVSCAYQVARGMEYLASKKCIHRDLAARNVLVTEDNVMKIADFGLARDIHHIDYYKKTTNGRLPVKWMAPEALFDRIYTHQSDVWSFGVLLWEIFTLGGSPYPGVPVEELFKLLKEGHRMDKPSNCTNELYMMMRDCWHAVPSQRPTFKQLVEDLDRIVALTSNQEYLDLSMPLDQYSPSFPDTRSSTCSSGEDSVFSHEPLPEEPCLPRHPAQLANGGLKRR
pIC50: −log10 of the molar value.
measured.quantity: pIC50

* CCS(=O)(=O)Cc1cnc(Oc2c(F)cc(F)cc2OCCCCOc2ccc(/C=C/c3cc(OC)cc(OC)c3)cc2)c(-c2cc(C)c3c(=O)[nH]ccn23)c1 | < 5.00

----------
# Tested on: A704 cells
# experiment: MTT cytotoxicity assay
# Format: cell-based
# condition.details: Homo sapiens, cell growth, 48 h treatment, read-out: IC50 (μM) ± SD A704
measured.quantity: IC50 (µM)

* CCS(=O)(=O)Cc1cnc(Oc2c(F)cc(F)cc2OCCCCOc2ccc(/C=C/c3cc(OC)cc(OC)c3)cc2)c(-c2cc(C)c3c(=O)[nH]ccn23)c1 | 1.07

----------
# experimental.system: STAT2 (Homo sapiens, UniProt P52630)
# Sequence (P52630 whole entry): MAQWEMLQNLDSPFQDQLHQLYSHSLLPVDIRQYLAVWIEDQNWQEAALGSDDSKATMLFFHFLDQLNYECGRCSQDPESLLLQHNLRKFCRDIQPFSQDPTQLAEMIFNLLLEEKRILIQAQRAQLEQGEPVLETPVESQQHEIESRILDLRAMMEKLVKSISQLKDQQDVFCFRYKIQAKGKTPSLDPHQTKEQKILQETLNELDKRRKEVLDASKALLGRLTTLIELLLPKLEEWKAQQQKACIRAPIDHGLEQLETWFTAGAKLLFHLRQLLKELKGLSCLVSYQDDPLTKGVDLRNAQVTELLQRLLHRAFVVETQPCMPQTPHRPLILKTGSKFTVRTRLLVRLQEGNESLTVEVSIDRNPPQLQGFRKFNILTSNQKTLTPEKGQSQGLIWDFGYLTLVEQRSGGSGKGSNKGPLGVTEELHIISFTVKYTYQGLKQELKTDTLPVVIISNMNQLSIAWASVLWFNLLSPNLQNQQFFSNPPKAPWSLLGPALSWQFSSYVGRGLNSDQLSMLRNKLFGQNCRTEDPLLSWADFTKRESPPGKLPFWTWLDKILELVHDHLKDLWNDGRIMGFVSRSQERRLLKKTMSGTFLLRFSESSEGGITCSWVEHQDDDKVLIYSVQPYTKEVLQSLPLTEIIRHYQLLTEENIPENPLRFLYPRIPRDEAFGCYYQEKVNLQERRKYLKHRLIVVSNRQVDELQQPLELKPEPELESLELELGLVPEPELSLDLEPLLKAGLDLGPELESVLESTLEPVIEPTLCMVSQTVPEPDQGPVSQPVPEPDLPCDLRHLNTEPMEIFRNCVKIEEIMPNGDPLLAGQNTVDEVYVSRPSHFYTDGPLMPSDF
measured.quantity: IC50

- CCS(=O)(=O)Cc1cnc(Oc2c(F)cc(F)cc2OCCCCOc2ccc(/C=C/c3cc(OC)cc(OC)c3)cc2)c(-c2cc(C)c3c(=O)[nH]ccn23)c1: > 10 µM

----------
# experimental.system: YES1 (Homo sapiens)
# Sequence (P07947 whole entry): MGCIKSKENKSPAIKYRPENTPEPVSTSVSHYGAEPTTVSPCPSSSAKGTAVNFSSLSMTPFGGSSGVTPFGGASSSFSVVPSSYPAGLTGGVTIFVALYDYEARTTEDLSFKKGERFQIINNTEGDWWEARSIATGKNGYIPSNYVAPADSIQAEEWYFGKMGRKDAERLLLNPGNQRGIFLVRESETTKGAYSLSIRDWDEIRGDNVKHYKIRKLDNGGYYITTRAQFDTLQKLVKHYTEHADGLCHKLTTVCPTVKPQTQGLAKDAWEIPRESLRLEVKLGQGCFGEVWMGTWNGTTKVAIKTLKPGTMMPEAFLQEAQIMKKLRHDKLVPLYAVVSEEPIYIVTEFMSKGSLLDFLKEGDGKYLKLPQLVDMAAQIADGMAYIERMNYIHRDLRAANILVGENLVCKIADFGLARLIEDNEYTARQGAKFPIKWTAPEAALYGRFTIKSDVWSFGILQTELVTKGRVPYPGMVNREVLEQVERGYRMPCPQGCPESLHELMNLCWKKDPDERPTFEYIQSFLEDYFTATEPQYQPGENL
pIC50: −log10 of the molar value.
measured.quantity: pIC50

- CCS(=O)(=O)Cc1cnc(Oc2c(F)cc(F)cc2OCCCCOc2ccc(/C=C/c3cc(OC)cc(OC)c3)cc2)c(-c2cc(C)c3c(=O)[nH]ccn23)c1: < 5.00

----------
# experimental.system: DDR1 (Homo sapiens)
# Sequence (Q08345 19-913): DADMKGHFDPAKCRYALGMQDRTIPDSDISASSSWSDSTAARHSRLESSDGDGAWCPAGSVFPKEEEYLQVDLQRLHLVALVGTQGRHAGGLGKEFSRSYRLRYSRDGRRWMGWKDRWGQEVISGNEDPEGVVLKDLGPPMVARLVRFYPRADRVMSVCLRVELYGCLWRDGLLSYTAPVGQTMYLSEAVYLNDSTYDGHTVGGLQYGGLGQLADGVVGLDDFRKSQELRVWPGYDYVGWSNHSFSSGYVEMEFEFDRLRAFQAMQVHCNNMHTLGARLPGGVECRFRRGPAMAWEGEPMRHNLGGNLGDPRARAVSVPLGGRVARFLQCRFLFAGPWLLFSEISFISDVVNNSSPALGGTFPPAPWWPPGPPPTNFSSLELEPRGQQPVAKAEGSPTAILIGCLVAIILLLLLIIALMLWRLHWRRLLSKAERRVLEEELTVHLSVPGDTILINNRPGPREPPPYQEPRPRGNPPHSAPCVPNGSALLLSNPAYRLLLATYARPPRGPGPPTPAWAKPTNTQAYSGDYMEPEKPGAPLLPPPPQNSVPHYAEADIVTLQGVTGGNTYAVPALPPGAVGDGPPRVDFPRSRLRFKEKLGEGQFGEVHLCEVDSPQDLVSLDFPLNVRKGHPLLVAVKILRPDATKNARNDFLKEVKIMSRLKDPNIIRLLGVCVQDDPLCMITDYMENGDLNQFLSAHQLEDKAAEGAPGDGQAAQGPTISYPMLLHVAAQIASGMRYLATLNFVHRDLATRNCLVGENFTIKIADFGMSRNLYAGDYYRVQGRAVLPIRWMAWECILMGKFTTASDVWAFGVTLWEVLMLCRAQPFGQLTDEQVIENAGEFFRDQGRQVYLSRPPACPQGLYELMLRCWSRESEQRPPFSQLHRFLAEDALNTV
# experiment: SelectScreen Z′-LYTE kinase assay
# Type: biochemical
measured.quantity: IC50

• CCS(=O)(=O)Cc1cnc(Oc2c(F)cc(F)cc2OCCCCOc2ccc(/C=C/c3cc(OC)cc(OC)c3)cc2)c(-c2cc(C)c3c(=O)[nH]ccn23)c1 = > 10 µM

----------
# experimental.system: BRD2 (Homo sapiens, UniProt P25440)
# Sequence (P25440 whole entry): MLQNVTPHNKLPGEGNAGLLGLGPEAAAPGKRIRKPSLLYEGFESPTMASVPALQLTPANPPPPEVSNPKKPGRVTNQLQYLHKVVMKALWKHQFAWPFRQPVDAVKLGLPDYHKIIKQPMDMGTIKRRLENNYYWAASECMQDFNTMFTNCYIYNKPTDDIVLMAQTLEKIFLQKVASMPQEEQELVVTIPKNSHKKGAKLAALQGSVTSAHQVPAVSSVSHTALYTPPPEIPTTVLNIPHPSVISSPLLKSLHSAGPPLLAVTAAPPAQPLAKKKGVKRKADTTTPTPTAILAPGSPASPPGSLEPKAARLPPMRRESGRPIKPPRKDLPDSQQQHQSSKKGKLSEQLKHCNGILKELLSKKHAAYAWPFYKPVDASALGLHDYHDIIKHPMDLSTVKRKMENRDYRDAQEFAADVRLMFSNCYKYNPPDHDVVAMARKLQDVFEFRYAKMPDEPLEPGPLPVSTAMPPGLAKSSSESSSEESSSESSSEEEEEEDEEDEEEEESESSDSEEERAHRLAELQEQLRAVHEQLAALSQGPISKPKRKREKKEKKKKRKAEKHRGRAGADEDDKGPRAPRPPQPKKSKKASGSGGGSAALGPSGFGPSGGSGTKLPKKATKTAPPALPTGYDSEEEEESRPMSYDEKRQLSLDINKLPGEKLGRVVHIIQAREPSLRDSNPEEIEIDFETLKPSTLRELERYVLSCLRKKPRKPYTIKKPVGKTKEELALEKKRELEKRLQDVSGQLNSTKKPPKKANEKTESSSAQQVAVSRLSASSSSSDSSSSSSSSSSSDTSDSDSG
measured.quantity: Kd

* CCS(=O)(=O)Cc1cnc(Oc2c(F)cc(F)cc2OCCCCOc2ccc(/C=C/c3cc(OC)cc(OC)c3)cc2)c(-c2cc(C)c3c(=O)[nH]ccn23)c1 | > 10 µM
